Attribution: PubChem BioAssay (NCI)

- Tested on: U251 CNS
- method_summary: NCI-60 one-dose screen, 48 h
- details: 10 µM unless noted
The panel holds about 83,000 compounds, 20% with a hit somewhere; the sample as a whole holds those more often. Calls of active or inactive are those of the source. How the source made its calls: active means growth percent below 10; inactive means the rest.
Tick one outcome: t = active, f = inactive

Solved entries (count: 3):
compound: O=C1OCC2=C1C(c1cccc(C(F)(F)F)c1)c1cc3c(cc1N2CCO)OCO3 (stereo unspecified)
discrete_label: f
//
compound: CCOC(=O)Nc1nc2ccc(SCC(C)C)cc2s1
discrete_label: f
//
compound: CC(=O)c1cc(-c2ccccc2N)n(-c2ccc3c(c2)OCO3)c1C
discrete_label: f

What classification did COc1cccc2c(N=NC(=O)c3ccc(S(N)(=O)=O)cc3)c(O)[nH]c12 end up with in this test?
f

Now this one: Nc1ncnc2c1c(-c1ccc(Oc3ccccc3)cc1)nn2CC1SSCC1O (stereo unspecified)
f

Now this one: Cc1nn(-c2ccccc2)c(N2CCCCC2)c1/C=N/NC(=O)Cn1c(=O)sc2ccccc21
f

Now this one: Cn1cc(-c2nonc2-c2c[nH]c3ccccc23)c2ccccc21
f

Now this one: CCOC(=O)c1c(C)nc2c(c1N)CC(=O)N2Cc1cc(OC)c(OC)c(OC)c1
f

Now this one: COc1cc(Nc2c3ccc(Cl)cc3nc3ccc(OC)cc23)c2ncccc2c1
f

Now this one: CCOC(=O)c1c(NC(=O)c2ccc(C(C)(C)C)cc2)sc2cc(O)ccc12
f

Now this one: CC(CN)[C@@H]1CC[C@]2(CO)CC[C@]3(C)[C@H](CC[C@@H]4[C@@]5(C)CCC(N)C(C)(C)[C@@H]5CC[C@]43C)[C@@H]12 (stereo partly specified)
t

----------
- Test system: DU-145 prostate
- method_summary: NCI-60 one-dose screen, 48 h (100 = growth as untreated, 0 = no growth, -100 = all killed)
- details: 10 µM unless noted
Compounds without any hit were thinned out: in the full panel of roughly 83,000, 20% have a hit.
Everything with growth lower than 60% is F; everything else, including exactly 60%, is T.

Solved entries (count: 5):
molecule: COc1ccc(-c2oc(=O)ccc2-c2cc(OC)c(OC)c(OC)c2)cc1O
test_system: DU-145 prostate
discrete_label: F
--
molecule: O=C1/C=C/[C@@H](O)[C@@H]2C[C@@H](O)C[C@H]2/C=C/CCC[C@H](CCOCc2ccccc2)O1
test_system: DU-145 prostate
discrete_label: F
--
molecule: COc1ccc(Nc2ncccc2NC(=O)c2cn(Cc3cccc(Oc4ccccc4)c3)nn2)cc1OC
test_system: DU-145 prostate
discrete_label: T
--
molecule: CCN1C(=O)N(CC)C2C1NN=c1s/c(=C\c3cc4ccccc4[nH]3)c(=O)n12 (configuration not stated)
test_system: DU-145 prostate
discrete_label: F
--
molecule: COc1ccc(/C=C/C(=O)c2ccc(Nc3nc(Nc4ccc(F)cc4)nc(Nc4ccc(Cl)cc4)n3)cc2)cc1
test_system: DU-145 prostate
discrete_label: T

Could you please find out whether CC(C)c1ccc(-n2c(=S)[nH]c3sc4c(c3c2=O)CCC(=O)C4)cc1 has growth that meets 60% or exceeds it?
T

Now this one: COc1cc(/C=C2\C(=O)N(c3c(Cl)cccc3Cl)c3ccccc32)cc(OC)c1OCCCCCCn1c2ccccc2c(=O)c2ccccc21
T

Now this one: CNCc1cccc2c1OCCOCCN(C)C(=O)CN(C)S(=O)(=O)c1ccc(cc1)-c1cnc(N)c(n1)C(=O)N2
F

Now this one: C[C@@H]1CC[C@@]2(OC1)O[C@H]1C[C@H]3[C@@H]4CC=C5C[C@@H](O[C@@H]6O[C@H](CO)[C@@H](O[C@@H]7O[C@@H](CO)[C@H](O)[C@H]7O)[C@H](O)[C@H]6O[C@@H]6O[C@@H](C)[C@H](O)[C@@H](O)[C@H]6O)CC[C@]5(C)[C@H]4CC[C@]3(C)[C@H]1[C@@H]2C
F

Now this one: C[Se]C(=O)CC1=C2C=C(F)C=CC2/C(=C\c2ccc(S(C)=O)cc2)C1C (configuration not stated)
F

Now this one: CCCCCCOC(=O)CC1=C(C)/C(=C/c2[nH]c(-c3ccc[nH]3)cc2OC)N=C1C
F

Now this one: O=c1nc(Nc2nc3ccccc3s2)[nH]c(=O)c2ccccc12
T

Now this one: Cc1nc2sc(C(=O)Nc3cccc(Cl)c3)c(N)c2cc1C(O)c1ccccc1 (configuration not stated)
F
